# Test Name: in vivo
# Condition Description: female, CD-1, mouse, iv, 5 mg/kg, i.v. CL
Observed Property: clearance
Provide the measurement as a number trailed by its unit.

Answered examples (3):
| Compound | clearance |
| --- | --- |
| CC[C@@H]1Oc2nc([N+](=O)[O-])cn2C[C@@H]1NCc1ccc(OC(F)(F)F)cc1 [NI-269] | 19.7 mL/min/kg |
| CC[C@H]1Oc2nc([N+](=O)[O-])cn2C[C@@H]1NCc1ccc(OC(F)(F)F)cc1 [NI-182] | 15.2 mL/min/kg |
| O=[N+]([O-])c1cn2c(n1)OC[C@@H](NCc1ccc(OC(F)(F)F)c(Cl)c1)C2 [NI-135] | 41 mL/min/kg |

Give one value of clearance per listed compound.
1. O=[N+]([O-])c1cn2c(n1)OC[C@@H](NCc1ccc(OC(F)(F)F)c(O)c1)C2 [NI-147]
2. CC[C@@H]1Oc2nc([N+](=O)[O-])cn2C[C@@H]1OCc1ccc(OC(F)(F)F)cc1 [NI-145]
3. CC[C@H]1Oc2nc([N+](=O)[O-])cn2C[C@@H]1NCc1ccc(-c2ccc(OC(F)(F)F)cc2)cc1 [NI-297]
4. CC[C@@H]1Oc2nc([N+](=O)[O-])cn2C[C@@H]1NCc1ccc(OC(F)(F)F)c(F)c1 [NI-176]

Response:
1. 70.8 mL/min/kg
2. 17 mL/min/kg
3. 5 mL/min/kg
4. 22.2 mL/min/kg

Batch lookup, clearance per entry.
1. O=[N+]([O-])c1cn2c(n1)OC1(CC1)C(OCc1ccc(OC(F)(F)F)cc1)C2 (stereo not drawn) [NI-302]
2. O=[N+]([O-])c1cn2c(n1)OC[C@@H](NCc1ccc(OC(F)(F)F)c(F)c1)C2 [NI-136]

Response:
5 mL/min/kg
25.1 mL/min/kg

====

# Test Name: Cytotoxicity against THP1 macrophage cell lines
# Format: cell-based
# Condition Description: human, THP1 macrophage cell line; THP1 macrophage cell lines; read-out: Cytotoxicity CC50
Observed Property: CC50

Prompt: Which CC50 is reported for this compound? O=[N+]([O-])c1cn2c(n1)OC[C@@H](OCc1ccc(OC(F)(F)F)cc1)C2 [PA-824, reference compound]
Response: > 10 µg/mL

====

# Test Name: in vitro
# Condition Description: mouse, plasma
Observed Property: fraction unbound
Give bare numbers.

| Molecule | fraction unbound |
| --- | --- |
| O=C(CO[C@@H]1COc2nc([N+](=O)[O-])cn2C1)N1CCN(c2ccc(C(F)(F)F)cn2)CC1 [NI-644] | 0.1 |
| O=[N+]([O-])c1cn2c(n1)OC[C@@H](NCc1ccc(OC(F)(F)F)c(F)c1)C2 [NI-136] | 0.173 |
| O=[N+]([O-])c1cn2c(n1)OC[C@@H](NCc1ccc(OC(F)(F)F)c(Cl)c1)C2 [NI-135] | 0.085 |

Could I get fraction unbound for every one of these entries?
1. O=C(CO[C@@H]1COc2nc([N+](=O)[O-])cn2C1)N1CCN(c2ccc(OC(F)(F)F)cc2)CC1 [NI-622]
2. O=[N+]([O-])c1cn2c(n1)OC[C@@H](NCc1ccc(OC(F)(F)F)cc1)C2 [Amino-824]
3. O=[N+]([O-])c1cn2c(n1)OC1(CC1)C(OCc1ccc(OC(F)(F)F)cc1)C2 (stereo not shown) [NI-302]
4. CC[C@H]1Oc2nc([N+](=O)[O-])cn2C[C@@H]1NCc1ccc(OC(F)(F)F)cc1 [NI-182]
5. O=[N+]([O-])c1cn2c(n1)OC[C@@H](NCCc1ccc(OC(F)(F)F)cc1)C2 [AminoEthyl-824]

Response:
1. 0.03
2. 0.2
3. 0.043
4. 0.087
5. 0.55

Dear reader, for each entry below, please note its fraction unbound.
1. O=[N+]([O-])c1cn2c(n1)OC[C@@H](OCc1ccc(OC(F)(F)F)cc1)C2 [PA-824, reference compound]
2. CC[C@H]1Oc2nc([N+](=O)[O-])cn2C[C@@H]1NCc1ccc(-c2ccc(OC(F)(F)F)cc2)cc1 [NI-297]

Response:
1: 0.1; 2: 0.018

====

# Test Name: in vivo
# Condition Description: female, CD-1, mouse, po, 25 mg/kg
Values of Cmax greater than or equal to 2000 ng/mL map to true; values below map to false.

These solved cases illustrate the format of a correct answer.
| Molecule | Assigned Category |
| --- | --- |
| O=[N+]([O-])c1cn2c(n1)OC[C@@H](NCc1ccc(OC(F)(F)F)c(Cl)c1)C2 | false |
| CC[C@@H]1Oc2nc([N+](=O)[O-])cn2C[C@@H]1NCc1ccc(OC(F)(F)F)cc1 | true |
| O=[N+]([O-])c1cn2c(n1)OC1(CC1)C(OCc1ccc(OC(F)(F)F)cc1)C2 (stereo not drawn) | true |
| CC[C@@H]1Oc2nc([N+](=O)[O-])cn2C[C@@H]1OCc1ccc(OC(F)(F)F)cc1 | false |
| CC[C@@H]1Oc2nc([N+](=O)[O-])cn2C[C@@H]1NCc1ccc(OC(F)(F)F)c(F)c1 | true |
| CC[C@H]1Oc2nc([N+](=O)[O-])cn2C[C@@H]1NCc1ccc(OC(F)(F)F)cc1 | true |

Prompt: Threshold query (Cmax >= 2000 ng/mL) on CC[C@H]1Oc2nc([N+](=O)[O-])cn2C[C@@H]1NCc1ccc(-c2ccc(OC(F)(F)F)cc2)cc1
Response: true

Prompt: Could you please find out whether O=[N+]([O-])c1cn2c(n1)OC[C@@H](NCc1ccc(OC(F)(F)F)c(O)c1)C2 has Cmax that meets 2000 ng/mL or exceeds it?
Response: false

====

Hi there, I'd appreciate the recorded Vd for every entry that follows.
# Test Name: in vivo
# Condition Description: female, CD-1, mouse, iv, 5 mg/kg
A bare number is not enough; add the unit after it.

Would you please look over these solved cases?
| Molecule | Vd |
| --- | --- |
| O=[N+]([O-])c1cn2c(n1)OC[C@@H](NCc1ccc(OC(F)(F)F)c(O)c1)C2 [NI-147] | 0.4 L/kg |
| CC[C@@H]1Oc2nc([N+](=O)[O-])cn2C[C@@H]1NCc1ccc(OC(F)(F)F)c(F)c1 [NI-176] | 1.8 L/kg |
| O=[N+]([O-])c1cn2c(n1)OC1(CC1)C(OCc1ccc(OC(F)(F)F)cc1)C2 (stereo not drawn) [NI-302] | 1.2 L/kg |
| O=[N+]([O-])c1cn2c(n1)OC[C@@H](NCc1ccc(OC(F)(F)F)c(Cl)c1)C2 [NI-135] | 4.2 L/kg |
| CC[C@@H]1Oc2nc([N+](=O)[O-])cn2C[C@@H]1OCc1ccc(OC(F)(F)F)cc1 [NI-145] | 1.7 L/kg |

Provide reported Vd for each item, in the same order as listed.
1. O=[N+]([O-])c1cn2c(n1)OC[C@@H](NCc1ccc(OC(F)(F)F)c(F)c1)C2 [NI-136]
2. CC[C@H]1Oc2nc([N+](=O)[O-])cn2C[C@@H]1NCc1ccc(OC(F)(F)F)cc1 [NI-182]
3. CC[C@@H]1Oc2nc([N+](=O)[O-])cn2C[C@@H]1NCc1ccc(OC(F)(F)F)cc1 [NI-269]
4. CC[C@H]1Oc2nc([N+](=O)[O-])cn2C[C@@H]1NCc1ccc(-c2ccc(OC(F)(F)F)cc2)cc1 [NI-297]

Response:
["1.8 L/kg", "3 L/kg", "2.6 L/kg", "2.6 L/kg"]

====

# Test Name: in vivo
# Condition Description: female, CD-1, mouse, po, 50 mg/kg
Observed Property: Tmax (h)
Give bare numbers, in h.

Prompt: Could you share which Tmax value was measured for O=C(CO[C@@H]1COc2nc([N+](=O)[O-])cn2C1)N1CCN(c2ccc(C(F)(F)F)cn2)CC1 [NI-644] ?
Response: 1

====

# Condition Description: female, CD-1, mouse, in vivo, po, 25 mg/kg
# label = condition met if Lung Cmax < 7 µg/g else condition not met

Take a look at these entries with their results.
| Molecule | Assigned Category |
| --- | --- |
| CC[C@@H]1Oc2nc([N+](=O)[O-])cn2C[C@@H]1NCc1ccc(OC(F)(F)F)cc1 [NI-269] | condition met |
| O=[N+]([O-])c1cn2c(n1)OC[C@@H](OCc1ccc(OC(F)(F)F)cc1)C2 [PA-824, reference compound] | condition not met |
| CC[C@H]1Oc2nc([N+](=O)[O-])cn2C[C@@H]1NCc1ccc(OC(F)(F)F)cc1 [NI-182] | condition not met |
| O=[N+]([O-])c1cn2c(n1)OC[C@@H](NCc1ccc(OC(F)(F)F)c(O)c1)C2 [NI-147] | condition met |
| O=[N+]([O-])c1cn2c(n1)OC[C@@H](NCc1ccc(OC(F)(F)F)c(Cl)c1)C2 [NI-135] | condition met |

Prompt: Lung Cmax strictly < 7 µg/g for this molecule? O=[N+]([O-])c1cn2c(n1)OC1(CC1)C(OCc1ccc(OC(F)(F)F)cc1)C2 (stereo not shown) [NI-302]
Response: condition not met

Prompt: Hi there! Is Lung Cmax for CC[C@@H]1Oc2nc([N+](=O)[O-])cn2C[C@@H]1NCc1ccc(OC(F)(F)F)c(F)c1 [NI-176] below 7 µg/g, do you know?
Response: condition met

Prompt: Confirm or reject: Lung Cmax of CC[C@@H]1Oc2nc([N+](=O)[O-])cn2C[C@@H]1OCc1ccc(OC(F)(F)F)cc1 [NI-145] lies strictly below 7 µg/g
Response: condition met

Prompt: Determine whether this molecule shows Lung Cmax lower than 7 µg/g (ties excluded): CC[C@H]1Oc2nc([N+](=O)[O-])cn2C[C@@H]1NCc1ccc(-c2ccc(OC(F)(F)F)cc2)cc1 [NI-297]
Response: condition not met
